Values compiled from PubChem BioAssay (NCI).

# System: DLD-1 colon
# Method Description: NCI tumour cell line growth inhibition, 48 h
Experimental Endpoint: TGI

Write down the reported TGI (system: DLD-1 colon) of O=c1cccccc1[O-].O=c1cccccc1[O-].O=c1cccccc1[O-].[Nd+3]
> 100 µM

Given COc1ccc(OC(=O)N2C/C(=C\c3ccccc3)C(=O)/C(=C/c3ccccc3)C2)cc1 , report its TGI on DLD-1 colon.
5.29 µM

Output reported TGI of the compound CCOC(=O)C(C(=O)OCC)=C1C=C(c2ccccc2)c2ccccc21 on DLD-1 colon.
> 100 µM

Quote DLD-1 colon TGI for entry O=P1(Oc2ccc(Cl)cc2Cl)Oc2cc3ccccc3cc2O1 .
> 100 µM

Report TGI under test system DLD-1 colon for CC1=C2CC[C@@]3(C)C(=CCC3O)C2(C)CCC1=O (stereo partly drawn) .
> 100 µM

State measured TGI of the compound O=C(c1ccccc1)n1cc(/C=C/[N+](=O)[O-])c2ccccc21 with DLD-1 colon.
33.5 µM

Please report TGI with DLD-1 colon for item c1cc2c(cc1C1OCC3C(c4ccc5c(c4)OCO5)OCC13)OCO2 (stereo not drawn) .
> 100 µM

Provide DLD-1 colon TGI reading for CCOC(=O)/C(C1=NCCN1C)=C(\O)c1ccccc1 .
> 100 µM

Name the value of TGI reported for C#CN1C(=O)c2c(c(-c3ccccc3)c(-c3ccc(Oc4ccc(-c5c(-c6ccccc6)c6c(c(-c7ccccc7)c5-c5ccccc5)C(=O)N(C#C)C6=O)cc4)cc3)c(-c3ccccc3)c2-c2ccccc2)C1=O when tested on DLD-1 colon.
> 100 µM

Supply TGI measured with DLD-1 colon for CC(=O)OCc1nnn2c1C(OC(C)=O)CC2 (stereo not drawn) .
> 100 µM

Please indicate recorded TGI of NNC(=O)/C(NC(=O)c1ccccc1)=C(\N)c1cccc([N+](=O)[O-])c1 measured with DLD-1 colon.
> 100 µM

Fill in: TGI on DLD-1 colon, entry CCN(N=O)C1C2(CCCC2)NC(=O)C12CCCC2 (stereo not drawn)
> 100 µM

Enter TGI (test system DLD-1 colon) for O=C(O)C12C3CCC(C3)C1(C(=O)O)C1CCC2C1 (stereo not drawn)
64.1 µM

====

# Tested on: MDA-N
# Method Description: NCI tumour cell line growth inhibition, 48 h
The molecules listed here are annotated with their TGI.
Unit µM implied. Number only.

Use these answered entries as a reference point.
O=C1c2ccccc2C(=O)c2c1oc1cc(O)c(Cl)cc21    3.35
Cc1cc(NS(=O)(=O)c2ccc(NO)cc2)no1    44.4
CC1(C=O)CC(CCc2ccccc2)NC1Cc1ccc(O)cc1 (stereo unspecified)    32.1
Cc1ccc(NC(=O)c2cccc(OP(=O)(Nc3ccc(C)cc3)Nc3ccc(C)cc3)c2)cc1    21.7

Shifting focus to the molecule that follows.
Look up MDA-N data: TGI of COc1ccc2nc3c4c(nccc4c2c1)-c1ncccc1C3=O , then report it.
0.128

====

# Test system: MOLT-4 leukemia
# Method Description: NCI tumour cell line growth inhibition, 48 h
Experimental Endpoint: TGI

Here is how some molecules turned out for TGI.
CC(=O)Oc1ccc(C2OC(c3ccc4ccccc4c3OC(C)=O)=NN2C(C)=O)c(OC(C)=O)c1 (centres undefined)    > 100 µM
Nc1nc2ccc(CNc3ccc(C(=O)NC(CC(=O)O)C(=O)O)cc3)cc2c(=O)[nH]1 (centres undefined)    > 100 µM
O=c1[nH]c(=O)n([C@H]2C[C@@H](CO)[C@@H](O)C2)cc1I    > 100 µM

Fill in: TGI on MOLT-4 leukemia, entry N#Cc1c(-c2ccccc2)cn(C(=O)c2ccccc2)c1N
> 100 µM

State recorded TGI with MOLT-4 leukemia, entry COc1ccccc1CNCCCN1C(=O)c2ccc3c4c(ccc(c24)C1=O)C(=O)N(CCCNCCCCNCCCN)C3=O , no comment.
8.31 µM

Tell me its TGI on MOLT-4 leukemia: CN1CCS(=O)(=O)NC(Cc2ccccc2)C(=O)N2CCCC2C1=O (centres undefined)
> 100 µM

Enter measured TGI, system MOLT-4 leukemia, for the molecule shown: COc1cc(C2C(C(=O)NCc3ccccc3)=C(C)NC(C)=C2C(=O)NCc2ccccc2)ccc1O
55.8 µM

GET TGI where system = MOLT-4 leukemia and item = Cc1ccccc1N(CCC#N)C1=NN(C(=O)CC(=O)Nc2ccc(Cl)cc2)C(c2ccccc2)C1 (centres undefined)
> 100 µM

Quote MOLT-4 leukemia TGI for entry COc1ccc(/C=C2/SC(=Nc3ccccc3)N(NC(=O)Cc3ccccc3)C2=O)cc1 .
> 100 µM

====

GI50 values by entry
# System: LOX IMVI melanoma
# Method Description: NCI tumour cell line growth inhibition, 48 h

CCN1CCN(Cc2ccc(Nc3ncc(F)c(-c4cc(F)c5nc(C)n(C(C)C)c5c4)n3)nc2)CC1    1.41 µM

Check the records and state GI50 for CCN1C(=O)/C(=c2\sc3n(c2=O)C2C(NN=3)N(CC)C(=O)N2CC)c2ccccc21 (stereo not drawn)
0.666 µM

State its GI50 for this compound: CCN1CCN(Cc2ccc(NC(=O)Nc3nc(-c4cc(OC)c(OC)c(OC)c4)cs3)cc2C(F)(F)F)CC1
2.18 µM

Indicate the recorded GI50 value for this compound: CC[C@]12C=CCN3CC[C@]4(C(=C(C(=O)OC)C1)Nc1cc5c(cc14)[C@@H]1[C@H](O5)[C@@H](O)[C@@]4(CC)CC(C(=O)OC)=C5Nc6ccccc6[C@@]56CCN1[C@@H]46)[C@@H]32
0.39 µM

Identify measured GI50 corresponding to Nc1nc2ccc(CNc3ccc(C(=O)NC(CC(=O)O)C(=O)O)cc3)cc2c(=O)[nH]1 (stereo not drawn)
0.472 µM

Give a short answer stating reported GI50 for CCc1ccc(Oc2c(-c3ccc(OCCc4cccc(C(F)(F)F)c4)cc3O)n[nH]c2C(F)(F)F)cc1 .
1.94 µM

Retrieve GI50 measured for c1cc[n+](Cc2c3ccccc3cc3c2ccc2ccccc23)cc1 and print it.
3.72 µM

Tell me GI50 reported for CCCCCCCCCN=C(N)c1ccc(N2CCN(c3ccc(C(N)=NCCCCCCCCC)cc3)CC2)cc1
2.1 µM

Please indicate GI50 recorded for Clc1nc(Cl)c2ncn(-c3ccccc3)c2n1
1.67 µM

Indicate the recorded GI50 value for this compound: Cc1cc(S(=O)(=O)Nc2nc3ccccc3c(=O)n2Cc2ccco2)c(S)cc1Cl
26.1 µM

Supply recorded GI50 for C[C@@]12CC[C@@H](O)C[C@@H]1CC[C@H]1[C@H]2CC[C@@]2(C)[C@H](c3ccc(=O)oc3)CC[C@@]12O here.
< 0.01 µM

Determine its reported GI50: Cc1ccc2ncnc(N(C)C3CCCCC3)c2c1
21.7 µM

Consider the compound Cc1ccc(NC(=S)NNC(=S)Nc2ccc(C)cc2)cc1 . State its measured GI50.
6.13 µM

For the compound COc1ccc2[nH]c(C(=O)OCc3ccc4c(Br)cc(Br)c(O)c4n3)cc2c1 , report GI50.
0.188 µM

Give a short answer stating reported GI50 for CC[C@]12C=CCN3CC[C@@]4(c5ccc(OC)cc5N(C)[C@H]4[C@@](O)(C(=O)OC)[C@@H]1OC(=O)CCC(=O)O[C@H]1CC[C@H]4[C@@H]5CCC6=CC(=O)CC[C@@H]6[C@H]5CC[C@]14C)[C@@H]32 .
1.51 µM

Find the measured GI50 of COc1ccc(C2=C(c3ccccc3)C(=O)N3CCCC3C2)cc1 (stereo not drawn) and report it.
0.115 µM

Using the record for CO/N=C(/C)COc1ccc2c(c1)oc(=O)c1cc(OC)ccc12 , state its measured GI50.
> 100 µM

Let me know recorded GI50 for COc1cc2c(Nc3ccc(-c4ccc(N)cc4)cc3)ncnc2c(OC)c1OC , thanks.
0.438 µM

====

# Tested on: SNB-19 CNS
# Method Description: NCI tumour cell line growth inhibition, 48 h
We begin with a simple list: items and their reported TGI.

CCOC(=O)CCc1c(C)c2c(OC)cc(OC)cc2oc1=O    > 100 µM
c1ccc(-c2cc3nc4ccccc4nc3cc(-c3ccccc3)[nH][nH]2)cc1    > 100 µM
Nc1c(S(=O)(=O)O)cc(S(=O)(=O)O)c2ccc(N=Nc3ccccc3)c(O)c12    > 100 µM
COc1ccc(-c2nc3sccn3c2-c2ccnc(NCCNS(=O)(=O)c3ccc(C(F)(F)F)cc3)n2)cc1    > 100 µM
COc1cc(/C=C2\CCC/C(=C\c3cc(CN4CCCC4)c(O)c(OC)c3)C2=O)cc(CN2CCCC2)c1O    20.8 µM
O=C(Nn1c(-c2ccccc2)nc2ccccc2c1=O)c1cccc([N+](=O)[O-])c1    > 100 µM

Identify measured TGI corresponding to O=C(c1ccccc1)c1ccc(N2C(=O)/C(=C/c3ccccc3S)N=C2c2ccccc2)c(N2C(=O)/C(=C/c3ccccc3S)N=C2c2ccccc2)c1
> 100 µM

Please give measured TGI of the following entry: Cc1cc(O)ccc1C1(c2ccc(O)cc2C)OC(=O)c2ccccc21
35.2 µM

Annotate the compound CN1N=C(c2ccncc2)OC1c1cccc(F)c1 (stereo not drawn) with its measured TGI.
> 100 µM

Look up and report measured TGI for this entry: NC(=O)C1=C(O)[C@@]2(O)C(=O)C3=C(O)c4c(O)cccc4CC3C[C@H]2CC1=O (stereo partly drawn)
10.9 µM

Name the recorded TGI of the item Cc1cn(CC(=S)NCCc2c[nH]c3ccccc23)c(=O)[nH]c1=O in your answer.
> 100 µM

Provide one value: measured TGI of COc1ccc(/C=C2/SC(=Nc3ccccc3)N(NC(=O)Cc3ccccc3)C2=O)cc1
> 100 µM

Give a short answer stating reported TGI for CCOC(=O)/C(=C\c1c[nH]c2ccccc12)P(=O)(OCC)OCC .
> 100 µM

Provide TGI value for the following compound: CCC1=CC(OCc2ccccc2)C(CCN(Cc2ccccc2)C(=O)OCc2ccccc2)C1 (stereo not drawn)
30.9 µM
